These entries and their values trace back to ChEMBL document CHEMBL1132303.

# System: Hef522 normal fibroblasts (human)
# PROTOCOL: The compound was tested for growth inhibitory activity against normal fibroblast (Hef522)
Readings of IC50 for the listed compounds
// return numeric value only (unit: µM, not printed)

Example entries begin here.
| STRUCTURE SMILES STRING | STUDY SYSTEM | QUANTITY KIND | VALUE UNITS | OBSERVED |
| --- | --- | --- | --- | --- |
| O=C1O/C(=C\Cn2cc(C(F)(F)F)c(=O)[nH]c2=O)C(OCc2ccccc2)=C1OCc1ccccc1 | Hef522 normal fibroblasts (human) | IC50 | µM | 60 |
| O=C1O/C(=C\Cn2cc(Cl)c(=O)[nH]c2=O)C(OCc2ccccc2)=C1OCc1ccccc1 | Hef522 normal fibroblasts (human) | IC50 | µM | 30 |
| O=C1O/C(=C\Cn2cc(I)c(=O)[nH]c2=O)C(OCc2ccccc2)=C1OCc1ccccc1 | Hef522 normal fibroblasts (human) | IC50 | µM | 40 |
| O=C1O/C(=C\Cn2ccc(=O)[nH]c2=O)C(OCc2ccccc2)=C1OCc1ccccc1 | Hef522 normal fibroblasts (human) | IC50 | µM | 50 |
| O=C1O/C(=C\Cn2cc(Br)c(=O)[nH]c2=O)C(OCc2ccccc2)=C1OCc1ccccc1 | Hef522 normal fibroblasts (human) | IC50 | µM | 30 |

Query :: Which value of IC50 has been reported for O=C1O/C(=C\Cn2cc(F)c(=O)[nH]c2=O)C(OCc2ccccc2)=C1OCc1ccccc1 in the records?
Result :: 40

Query :: Which value of IC50 has been reported for O=C1O/C(=C/Cn2cnc3ncnc(Cl)c32)C(OCc2ccccc2)=C1OCc1ccccc1 in the records?
Result :: 20

Query :: Which value of IC50 has been reported for O=C1O/C(=C\Cn2cnc3c(Cl)ncnc32)C(OCc2ccccc2)=C1OCc1ccccc1 in the records?
Result :: 50

* * *

Readings of pIC50 for the listed compounds
# Tested on: HEL
# PROTOCOL: The compound was tested for antiviral activity by measuring the concentration required to reduce plaque formation against Varicella zoster TK-(deficient) 07/1 strain
# Assay type: functional, cell-based
# TEST CONDITIONS: Homo sapiens
Answer as the number alone; pIC50 is minus log10 of concentration in mol/L.

| COMPOUND | pIC50 |
| --- | --- |
| O=C1O/C(=C\Cn2ccc(=O)[nH]c2=O)C(OCc2ccccc2)=C1OCc1ccccc1 | 5.47 |

Attention now shifts to the item below.
Query :: Which value of pIC50 has been reported for Nc1nc2c(ncn2COCCO)c(=O)[nH]1 [ACYCLOVIR] in the records?
Result :: 4.77

* * *

Readings of pIC50 for the listed molecules
# Test system: MOLT-4
# PROTOCOL: The compound was tested for growth inhibitory activity against Molt4/C8 tumor cell lines
# Type: functional, cell-based
# TEST CONDITIONS: Homo sapiens
Answer as the number alone; pIC50 is minus log10 of concentration in mol/L.

| STRUCTURE SMILES STRING | QUANTITY KIND | OBSERVED |
| --- | --- | --- |
| O=C1O/C(=C/Cn2cnc3ncnc(Cl)c32)C(OCc2ccccc2)=C1OCc1ccccc1 | pIC50 | 5.17 |
| O=C1O/C(=C\Cn2ccc(=O)[nH]c2=O)C(OCc2ccccc2)=C1OCc1ccccc1 | pIC50 | 5.32 |
| O=C1O/C(=C\Cn2cc(I)c(=O)[nH]c2=O)C(OCc2ccccc2)=C1OCc1ccccc1 | pIC50 | 5.41 |

Query :: Which value of pIC50 has been reported for O=C1O/C(=C\Cn2cc(C(F)(F)F)c(=O)[nH]c2=O)C(OCc2ccccc2)=C1OCc1ccccc1 in the records?
Result :: 6.05

Query :: Which value of pIC50 has been reported for O=C1O/C(=C\Cn2cc(Br)c(=O)[nH]c2=O)C(OCc2ccccc2)=C1OCc1ccccc1 in the records?
Result :: 5.41

Query :: Which value of pIC50 has been reported for O=C1O/C(=C\Cn2cnc3c(-n4cccc4)ncnc32)C(OCc2ccccc2)=C1OCc1ccccc1 in the records?
Result :: 5.41

* * *

# Test system: FM3A
# PROTOCOL: The compound was tested for growth inhibitory activity against FM3A/0 tumor cell lines
# Format: functional, cell-based
# TEST CONDITIONS: Mus musculus
Readings of pIC50 for the listed compounds
Answer as the number alone; pIC50 is minus log10 of concentration in mol/L.

Example entries begin here.
| STRUCTURE SMILES STRING | pIC50 |
| --- | --- |
| O=C1O/C(=C\Cn2cc(I)c(=O)[nH]c2=O)C(OCc2ccccc2)=C1OCc1ccccc1 | 4.65 |
| O=C1O/C(=C\Cn2cc(F)c(=O)[nH]c2=O)C(OCc2ccccc2)=C1OCc1ccccc1 | 5.47 |
| O=C1O/C(=C\Cn2cc(C(F)(F)F)c(=O)[nH]c2=O)C(OCc2ccccc2)=C1OCc1ccccc1 | 5.44 |
| O=C1O/C(=C\Cn2cc(Br)c(=O)[nH]c2=O)C(OCc2ccccc2)=C1OCc1ccccc1 | 4.77 |
| O=C1O/C(=C\Cn2cc(Cl)c(=O)[nH]c2=O)C(OCc2ccccc2)=C1OCc1ccccc1 | 4.77 |

Query :: Which value of pIC50 has been reported for O=C1O/C(=C\Cn2ccc(=O)[nH]c2=O)C(OCc2ccccc2)=C1OCc1ccccc1 in the records?
Result :: 4.75

Query :: Which value of pIC50 has been reported for O=C1O/C(=C/Cn2cnc3ncnc(Cl)c32)C(OCc2ccccc2)=C1OCc1ccccc1 in the records?
Result :: 4.94

Query :: Which value of pIC50 has been reported for O=C1O/C(=C\Cn2cnc3c(Cl)ncnc32)C(OCc2ccccc2)=C1OCc1ccccc1 in the records?
Result :: 4.79

* * *

# Test system: MIA PaCa-2
# PROTOCOL: The compound was tested for growth inhibitory activity against MiaPaCa2 tumor cell lines
# Format: functional, cell-based
# TEST CONDITIONS: Homo sapiens
QUANTITY KIND: pIC50
Answer as the number alone; pIC50 is minus log10 of concentration in mol/L.

Example entries begin here.
| STRUCTURE SMILES STRING | pIC50 |
| --- | --- |
| O=C1O/C(=C\Cn2ccc(=O)[nH]c2=O)C(OCc2ccccc2)=C1OCc1ccccc1 | 4.52 |
| O=C1O/C(=C\Cn2cc(C(F)(F)F)c(=O)[nH]c2=O)C(OCc2ccccc2)=C1OCc1ccccc1 | 4.52 |
| O=C1O/C(=C\Cn2cnc3c(Cl)ncnc32)C(OCc2ccccc2)=C1OCc1ccccc1 | 4.22 |

Attention now shifts to the item below.
Query :: Which value of pIC50 has been reported for O=C1O/C(=C/Cn2cnc3ncnc(Cl)c32)C(OCc2ccccc2)=C1OCc1ccccc1 in the records?
Result :: 4.40

* * *

# Tested on: HEL
# PROTOCOL: The compound was tested for antiviral activity by measuring the concentration required to reduce plaque formation against cytomegalo virus Davis strain
# Assay type: functional, cell-based
# TEST CONDITIONS: Homo sapiens
pIC50: −log10 of the molar value.
Readings of pIC50 for the listed molecules

Example entries begin here.
| STRUCTURE SMILES STRING | pIC50 |
| --- | --- |
| O=C1O/C(=C\Cn2cc(I)c(=O)[nH]c2=O)C(OCc2ccccc2)=C1OCc1ccccc1 | < 5.70 |
| O=C1O/C(=C\Cn2cc(Br)c(=O)[nH]c2=O)C(OCc2ccccc2)=C1OCc1ccccc1 | < 5.70 |

Attention now shifts to the item below.
Query :: Which value of pIC50 has been reported for O=C1O/C(=C\Cn2cnc3c(-n4cccc4)ncnc32)C(OCc2ccccc2)=C1OCc1ccccc1 in the records?
Result :: < 6.30

* * *

# System: HEL
# PROTOCOL: The compound was tested for antiviral activity by measuring the concentration required to reduce plaque formation against cytomegalo virus Davis strain
# Type: functional, cell-based
# TEST CONDITIONS: Homo sapiens
QUANTITY KIND: IC50

| STRUCTURE SMILES STRING | IC50 |
| --- | --- |
| O=C1O/C(=C\Cn2cnc3c(Cl)ncnc32)C(OCc2ccccc2)=C1OCc1ccccc1 | > 5 µM |
| O=C1O/C(=C\Cn2cc(Cl)c(=O)[nH]c2=O)C(OCc2ccccc2)=C1OCc1ccccc1 | > 2 µM |

Attention now shifts to the item below.
Query :: Value wanted: IC50 (HEL) of entry O=C1O/C(=C/Cn2cnc3ncnc(Cl)c32)C(OCc2ccccc2)=C1OCc1ccccc1
Result :: > 5 µM

* * *

# System: HEL
# PROTOCOL: The compound was tested for antiviral activity by measuring the concentration required to reduce plaque formation against Varicella zoster TK+YS strain
# Assay type: functional, cell-based
# TEST CONDITIONS: Homo sapiens
pIC50: −log10 of the molar value.
QUANTITY KIND: pIC50

| STRUCTURE SMILES STRING | pIC50 |
| --- | --- |
| O=C1O/C(=C/Cn2cnc3ncnc(Cl)c32)C(OCc2ccccc2)=C1OCc1ccccc1 | < 5.30 |
| O=C1O/C(=C\Cn2cc(Br)c(=O)[nH]c2=O)C(OCc2ccccc2)=C1OCc1ccccc1 | < 5.70 |
| O=C1O/C(=C\Cn2cnc3c(Cl)ncnc32)C(OCc2ccccc2)=C1OCc1ccccc1 | < 5.30 |

Attention now shifts to the item below.
Query :: Value wanted: pIC50 (HEL) of entry O=C1O/C(=C\Cn2cc(Cl)c(=O)[nH]c2=O)C(OCc2ccccc2)=C1OCc1ccccc1
Result :: < 5.70
